Origin of the recorded values: patent US20260109763A1

test.target: T1, human PILRA G78 extracellular domain (recombinant hPILRA ECD) (human, UniProt Q9UKJ1 20-197)
T1 construct: also called hPILRA G78
T1 sequence (Q9UKJ1 20-197 R78G limits assumed): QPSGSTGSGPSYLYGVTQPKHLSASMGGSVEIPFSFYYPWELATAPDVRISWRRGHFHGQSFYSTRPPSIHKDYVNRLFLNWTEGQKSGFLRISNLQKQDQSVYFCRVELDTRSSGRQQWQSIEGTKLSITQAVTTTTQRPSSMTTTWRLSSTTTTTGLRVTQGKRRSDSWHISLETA
assay.explanation: SPR, Biacore 8K; hPILRA ECD; antibody with wild-type Fc
pKd: −log10 of the molar value.
Here the recorded pKd is given for each entry.
recorded.endpoint: pKd

[[record]]
binder = "Anti-PILRA antibody clone 35 (antibody, V domains shown, Humanized; also called Ab.35) VH: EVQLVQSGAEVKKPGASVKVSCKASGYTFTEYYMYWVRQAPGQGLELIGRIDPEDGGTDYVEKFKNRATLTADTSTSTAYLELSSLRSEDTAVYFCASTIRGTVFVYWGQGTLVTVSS VL: DIQMTQSPSSLSASVGDRVTITCRPSEDIYNGLAWYQQKPGKSPKLLIYNANSLHTGVPSRFSGSGSGTDYTLTISSLQPEDFATYFCQQYYDYPLTFGQGTKVEIK"
recorded_endpoint = "pKd"
numeric_value = 8.77

[[record]]
binder = "Anti-PILRA antibody clone 19 (antibody, V domains shown, Humanized) VH: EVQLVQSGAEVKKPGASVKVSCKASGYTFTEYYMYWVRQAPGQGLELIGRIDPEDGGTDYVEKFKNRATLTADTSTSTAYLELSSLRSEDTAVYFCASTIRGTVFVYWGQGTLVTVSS VL: DIQMTQSPSSLSASVGDRVTITCRASEDIFNGLAWYQQKPGKSPKLLIYNAKTLHTGVPSRFSGSGSGSDYTLTISSLQPEDFATYFCQQYYDYPLTFGQGTKVEIK"
recorded_endpoint = "pKd"
numeric_value = 8.70

